# test: qHTS Assay for Lipid Storage Modulators in Drosophila S3 Cells;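 also: cells counted by Cell Tracker Red CMTPX staining in the red channel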
# conditions: BODIPY lipid droplet fluorescence, 18-24 h, cells fed with added oleic acid; measured here: cell count max response
The whole screen tested about 320,000 compounds, of which about 2,100 (0.66%) were called active. Not shown: some 53% with an inconclusive outcome. This excerpt belongs to a sample that is enriched for actives.
assayEndpoint: cell number change (%)
Only the number, expressed in %, is required.

compound	assayEndpoint	numericValue
Cc1ccc(NC(=O)c2ccc(S(=O)(=O)N3CCC(C)CC3)cc2)cc1	cell number change	29.6
O=C(OCc1nnc(-c2ccccc2)o1)c1cc(S(=O)(=O)N2CCOCC2)ccc1F	cell number change	-16.6

INPUT: Name the reported cell number change value associated with the compound O=C1Nc2ccc(Cl)cc2C(C#CC2CC2)(C(F)(F)F)O1 (stereo not drawn)
OUTPUT: -25.6

INPUT: Follow-up entry: `CCOc1ccc2nc(NCCNC(=O)CC)c(C#N)cc2c1`
OUTPUT: 0.214

INPUT: Follow-up entry: `O=C(CSc1nnc(-c2cccnc2)n1CCN1CCCCC1)Nc1cccc(Cl)c1`
OUTPUT: 11.7

INPUT: Follow-up entry: `Nn1c(SCC(=O)NC2CCCCC2)nnc1-c1ccc(Cl)cc1`
OUTPUT: 17.9

INPUT: Follow-up entry: `CCOC(=O)c1oc2ccccc2c1COC(=O)CNC(=O)c1ccccc1`
OUTPUT: -8.09

INPUT: Follow-up entry: `Cc1noc(C)c1COC(=O)c1cc(S(=O)(=O)N2CCOCC2)ccc1F`
OUTPUT: 4.32

INPUT: Follow-up entry: `CC(C)N(C(=O)c1ccc2nc(-c3ccccc3)c(-c3ccccc3)nc2c1)C(C)C`
OUTPUT: -9.21

INPUT: Follow-up entry: `O=C1Nc2ccc(Cl)cc2C12OCCCO2`
OUTPUT: 13.2

INPUT: Follow-up entry: `CC(=O)Nc1ccc(S(=O)(=O)n2cnc3ccccc32)cc1`
OUTPUT: 13.3

INPUT: Follow-up entry: `Cc1ccccc1NC(=O)NC1(C(=O)NCCCN2CCOCC2)CCCCC1`
OUTPUT: -17.7

INPUT: Follow-up entry: COC(=O)C1(C(F)(F)F)N=C(C(F)(F)F)Nc2ccc(Cl)cc21 (stereo not drawn)
OUTPUT: 5.94

INPUT: Follow-up entry: `CCCc1ccc2oc(C(=O)N3CCC(O)CC3)c(C)c2c1`
OUTPUT: 4.78

INPUT: Follow-up entry: `CCN(CC)C(=O)c1ccc2nc(-c3ccccc3)c(-c3ccccc3)nc2c1`
OUTPUT: -0.854

INPUT: Follow-up entry: CCOC(=O)CNC(=O)N1CCCC(C(=O)c2cc(C)c(OC)c(C)c2)C1 (stereo not drawn)
OUTPUT: 16.3

INPUT: Follow-up entry: `CN(C)CCCNCCCNC(=O)/C(=N\O)c1ccccn1`
OUTPUT: 11.1

INPUT: Follow-up entry: CC1CCCN(S(=O)(=O)c2ccc(NC(=O)CNC3CCCC3)cc2)C1 (stereo not drawn)
OUTPUT: -7.89

INPUT: Follow-up entry: CC1CCCN(S(=O)(=O)c2ccc(NC(=O)CN3CCCCC3)cc2)C1 (stereo not drawn)
OUTPUT: -3.44

INPUT: Follow-up entry: `COc1ccccc1OCCNC(=O)c1cc(=O)[nH]c2ccccc12`
OUTPUT: 13.3

INPUT: Follow-up entry: `Cc1nnc(SCCN2C(=O)c3ccccc3C2=O)[nH]c1=O`
OUTPUT: -14.8

INPUT: Follow-up entry: `O=c1oc(-c2cccs2)nc2ccccc12`
OUTPUT: 0.728

INPUT: Follow-up entry: `O=C(O)c1ccc2nc(-c3ccccc3)c(-c3ccccc3)nc2c1`
OUTPUT: -2.52
